Reference source: patent US20240024488A1

- measurement.target: HiBit-BRG1 fusion protein (Homo sapiens, UniProt P51532)
- Construct: expressed in transfected cells
- Sequence (P51532 whole entry, the tested form may be a part): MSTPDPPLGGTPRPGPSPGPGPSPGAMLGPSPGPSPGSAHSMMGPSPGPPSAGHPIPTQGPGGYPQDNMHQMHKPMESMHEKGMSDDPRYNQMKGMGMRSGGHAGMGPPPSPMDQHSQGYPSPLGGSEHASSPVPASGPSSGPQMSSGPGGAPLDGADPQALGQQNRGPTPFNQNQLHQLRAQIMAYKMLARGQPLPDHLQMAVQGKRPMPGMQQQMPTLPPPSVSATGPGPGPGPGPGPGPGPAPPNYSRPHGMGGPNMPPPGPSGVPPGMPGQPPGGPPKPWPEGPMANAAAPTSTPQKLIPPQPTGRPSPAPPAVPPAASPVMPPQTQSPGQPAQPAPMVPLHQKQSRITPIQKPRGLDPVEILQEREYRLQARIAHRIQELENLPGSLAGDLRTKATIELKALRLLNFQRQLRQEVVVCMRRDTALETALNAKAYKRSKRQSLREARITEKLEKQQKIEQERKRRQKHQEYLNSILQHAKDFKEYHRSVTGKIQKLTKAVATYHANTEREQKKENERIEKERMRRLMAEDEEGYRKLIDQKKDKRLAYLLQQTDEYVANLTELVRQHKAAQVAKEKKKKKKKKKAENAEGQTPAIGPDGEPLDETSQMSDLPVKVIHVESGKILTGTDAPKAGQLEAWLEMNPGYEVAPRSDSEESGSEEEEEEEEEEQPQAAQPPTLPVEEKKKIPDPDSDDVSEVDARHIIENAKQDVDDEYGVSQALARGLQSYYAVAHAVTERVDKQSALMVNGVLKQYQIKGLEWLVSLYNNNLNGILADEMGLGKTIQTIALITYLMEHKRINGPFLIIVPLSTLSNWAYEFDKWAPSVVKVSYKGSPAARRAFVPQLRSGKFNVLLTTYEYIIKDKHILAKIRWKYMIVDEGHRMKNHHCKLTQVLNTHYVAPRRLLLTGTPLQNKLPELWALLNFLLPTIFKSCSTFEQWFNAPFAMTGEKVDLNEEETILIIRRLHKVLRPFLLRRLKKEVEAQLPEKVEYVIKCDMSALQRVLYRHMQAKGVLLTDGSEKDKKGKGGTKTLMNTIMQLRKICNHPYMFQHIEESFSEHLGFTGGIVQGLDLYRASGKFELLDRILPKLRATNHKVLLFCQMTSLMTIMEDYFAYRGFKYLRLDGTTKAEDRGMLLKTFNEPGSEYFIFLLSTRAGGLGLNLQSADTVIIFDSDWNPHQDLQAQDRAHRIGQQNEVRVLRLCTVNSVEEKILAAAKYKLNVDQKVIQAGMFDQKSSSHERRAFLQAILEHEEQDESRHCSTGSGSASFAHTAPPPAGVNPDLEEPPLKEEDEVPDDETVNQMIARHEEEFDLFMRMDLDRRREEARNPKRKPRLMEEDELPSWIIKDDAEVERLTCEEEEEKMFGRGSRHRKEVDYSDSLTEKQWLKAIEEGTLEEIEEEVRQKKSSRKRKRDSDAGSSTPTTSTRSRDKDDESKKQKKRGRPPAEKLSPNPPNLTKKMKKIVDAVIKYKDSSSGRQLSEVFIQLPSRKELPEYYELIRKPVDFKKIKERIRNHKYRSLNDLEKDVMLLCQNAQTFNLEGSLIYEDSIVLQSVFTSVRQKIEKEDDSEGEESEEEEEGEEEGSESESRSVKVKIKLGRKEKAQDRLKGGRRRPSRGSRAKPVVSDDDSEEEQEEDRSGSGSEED
- protocol.text: HiBiT-BRG1 cell-based degradation assay (Nano-Glo HiBiT Lytic Detection, 24 h)
- stated.conditions: HeLa cell line expressing HiBit-BRG1 and LgBit, read-out: BRG1 HiBit Degradation Maximum (%)
metric: Dmax

Here are 6 compounds together with their reported answers.
>>> result("Cc1ncsc1-c1ccc([C@H](C)NC(=O)[C@@H]2C[C@@H](O)CN2C(=O)[C@@H](c2cc(OCCN3CC(c4cc5cc(-c6cc(F)ccc6O)nnc5[nH]4)C3)no2)C(C)C)cc1 (racemic)")
"< 50%"
>>> result("Cc1ncsc1-c1ccc([C@H](C)NC(=O)[C@@H]2C[C@@H](O)CN2C(=O)[C@@H](c2cc(OCCCN3C[C@@H]4[C@H](C3)[C@H]4c3c(C)[nH]c4nnc(-c5ccccc5O)cc34)no2)C(C)C)cc1 (racemic)")
"> 75%"
>>> result("Cc1ncsc1-c1ccc([C@H](C)NC(=O)[C@@H]2C[C@@H](O)CN2C(=O)[C@H](c2cc(N(C)CCN3CC(c4cc5cc(-c6ccccc6O)nnc5[nH]4)C3)no2)C(C)C)cc1 (racemic)")
"< 50%"
>>> result("Cc1ncsc1-c1ccc([C@H](C)NC(=O)[C@@H]2C[C@@H](O)CN2C(=O)[C@@H](c2cc(N3CCC(CN[C@@H]4CCc5[nH]c6nnc(-c7ccccc7O)cc6c5C4)CC3)no2)C(C)C)cc1 (single isomer, unassigned)")
"> 50%"
>>> result("Cc1ncsc1-c1ccc(CNC(=O)[C@@H]2C[C@@H](O)CN2C(=O)[C@@H](NC(=O)CCCCCCCCCC(=O)N2CC(c3cc4cc(-c5ccccc5O)nnc4[nH]3)C2)C(C)(C)C)cc1")
"< 50%"
>>> result("Cc1ncsc1-c1ccc([C@H](C)NC(=O)[C@@H]2C[C@@H](O)CN2C(=O)[C@@H](c2cc(OCCN3CC(CCc4cc5cc(-c6ccccc6O)nnc5[nH]4)C3)no2)C(C)C)cc1 (racemic)")
"> 50%"

*Q* Field: Dmax (HiBit-BRG1 fusion protein (Homo sapiens, UniProt P51532)). Entry: Cc1ncsc1-c1ccc([C@H](C)NC(=O)[C@@H]2C[C@@H](O)CN2C(=O)[C@@H](c2cc(OCCN3CC4(CC(c5c[nH]c6nnc(-c7ccccc7O)cc56)C4)C3)no2)C(C)C)cc1 (racemic)
*A* > 75%

*Q* Field: Dmax (HiBit-BRG1 fusion protein (Homo sapiens, UniProt P51532)). Entry: `Cc1ncsc1-c1ccc(CNC(=O)[C@@H]2C[C@@H](O)CN2C(=O)[C@@H](NC(=O)CCCCCCCCCCCCCC(=O)N2CC(c3c[nH]c4nnc(-c5ccccc5O)cc34)C2)C(C)(C)C)cc1`
*A* < 50%

*Q* Field: Dmax (HiBit-BRG1 fusion protein (Homo sapiens, UniProt P51532)). Entry: Cc1ncsc1-c1ccc([C@H](C)NC(=O)[C@@H]2C[C@@H](O)CN2C(=O)[C@@H](c2cc(OCCN3CC(c4cc5cc(-c6ccccc6O)nnc5n4C)C3)no2)C(C)C)cc1 (racemic)
*A* < 50%

*Q* Field: Dmax (HiBit-BRG1 fusion protein (Homo sapiens, UniProt P51532)). Entry: Cc1ncsc1-c1ccc([C@H](C)NC(=O)[C@@H]2C[C@@H](O)CN2C(=O)[C@@H](c2cc(N3CCC(N4CCc5[nH]c6nnc(-c7ccccc7O)cc6c5C4)CC3)no2)C(C)C)cc1 (racemic)
*A* < 50%

*Q* Field: Dmax (HiBit-BRG1 fusion protein (Homo sapiens, UniProt P51532)). Entry: Cc1ncsc1-c1ccc([C@H](C)NC(=O)[C@@H]2C[C@@H](O)CN2C(=O)[C@@H](c2cc(N3CCN(C(=O)c4cc5cc(-c6ccccc6O)nnc5[nH]4)CC3)no2)C(C)C)cc1 (racemic)
*A* > 75%

*Q* Field: Dmax (HiBit-BRG1 fusion protein (Homo sapiens, UniProt P51532)). Entry: Cc1ncsc1-c1ccc([C@H](C)NC(=O)[C@@H]2C[C@@H](O)CN2C(=O)[C@@H](c2cc(OCCNC34CC(c5[nH]c6nnc(-c7ccccc7O)cc6c5C)(C3)C4)no2)C(C)C)cc1 (racemic)
*A* > 75%

*Q* Field: Dmax (HiBit-BRG1 fusion protein (Homo sapiens, UniProt P51532)). Entry: Cc1ncsc1-c1ccc([C@H](C)NC(=O)[C@@H]2C[C@@H](O)CN2C(=O)[C@@H](c2cc(OCCNC(=O)C(=O)N3CC(c4c[nH]c5nnc(-c6ccccc6O)cc45)C3)no2)C(C)C)cc1 (racemic)
*A* < 50%

*Q* Field: Dmax (HiBit-BRG1 fusion protein (Homo sapiens, UniProt P51532)). Entry: Cc1ncsc1-c1ccc([C@H](C)NC(=O)[C@@H]2C[C@@H](O)CN2C(=O)[C@@H](c2cc(OCCN(C)C(=O)c3cc4cc(-c5ccccc5O)nnc4[nH]3)no2)C(C)C)cc1 (racemic)
*A* < 50%

====

- measurement.target: HiBit-BRG1 fusion protein (Homo sapiens)
- Construct: expressed in transfected cells
- protocol.text: HiBiT-BRG1 cell-based degradation assay (Nano-Glo HiBiT Lytic Detection, 24 h)
- stated.conditions: HeLa cell line expressing HiBit-BRG1 and LgBit, read-out: BRG1 HiBit Degradation Maximum (%)
metric: Dmax

>>> result("Cc1ncsc1-c1ccc(CNC(=O)[C@@H]2C[C@@H](O)CN2C(=O)[C@@H](NC(=O)C(=O)N2CC(c3cc4cc(-c5ccccc5O)nnc4[nH]3)C2)C(C)(C)C)cc1 (racemic)")
"< 50%"
>>> result("Cc1ncsc1-c1ccc([C@H](C)NC(=O)[C@@H]2C[C@@H](O)CN2C(=O)[C@@H](c2cc(N3CCC(CN(C)[C@H]4CCc5[nH]c6nnc(-c7ccccc7O)cc6c5C4)CC3)no2)C(C)C)cc1")
"> 75%"
>>> result("Cc1ncsc1-c1ccc(C(C)NC(=O)C2CC(O)CN2C(=O)C(c2cc(OCCN3CC4C(C3)C4c3cc4cc(-c5cc(F)cc(F)c5O)nnc4[nH]3)no2)C(C)C)cc1 (stereo not drawn)")
"< 50%"
>>> result("Cc1ncsc1-c1ccc([C@H](C)NC(=O)[C@@H]2C[C@@H](O)CN2C(=O)[C@@H](c2cc(OCCN3CC[C@@H](c4[nH]c5nnc(-c6ccccc6O)cc5c4C)C3)no2)C(C)C)cc1 (racemic)")
"> 75%"
>>> result("Cc1ncsc1-c1ccc([C@H](C)NC(=O)[C@@H]2C[C@@H](O)CN2C(=O)[C@H](c2cc(C3CN(C(=O)[C@@H]4CCc5[nH]c6nnc(-c7ccccc7O)cc6c5C4)C3)no2)C(C)C)cc1 (single isomer, unassigned)")
"< 50%"

*Q* # input molecule: Cc1ncsc1-c1ccc([C@H](C)NC(=O)[C@@H]2C[C@@H](O)CN2C(=O)[C@@H](c2cc(N3CCN(CCC(=O)N4CC(c5c[nH]c6nnc(-c7ccccc7O)cc56)C4)CC3)no2)C(C)C)cc1 (racemic) ; wanted: its Dmax
*A* > 75%

*Q* # input molecule: Cc1ncsc1-c1ccc([C@H](C)NC(=O)[C@@H]2C[C@@H](O)CN2C(=O)C(c2cc(OCCNC3(C(=O)O)CCc4[nH]c5nnc(-c6ccccc6O)cc5c4C3)no2)C(C)C)cc1 (relative stereo) ; wanted: its Dmax
*A* < 50%

*Q* # input molecule: Cc1ncsc1-c1ccc([C@H](C)NC(=O)[C@@H]2C[C@@H](O)CN2C(=O)[C@@H](c2cc(OCCNC(=O)[C@H]3C[C@]4(Cc5cc(-c6ccccc6O)nnc5N4)C3)no2)C(C)C)cc1 (racemic) ; wanted: its Dmax
*A* < 50%

*Q* # input molecule: Cc1ncsc1-c1ccc([C@H](C)NC(=O)[C@@H]2C[C@@H](O)CN2C(=O)[C@@H](c2cc(OCCN3CC[C@@H](c4c(C)[nH]c5nnc(-c6ccccc6O)cc45)C3)no2)C(C)C)cc1 (single isomer, unassigned) ; wanted: its Dmax
*A* < 50%

*Q* # input molecule: Cc1ncsc1-c1ccc([C@H](C)NC(=O)[C@@H]2C[C@@H](O)CN2C(=O)[C@@H](c2cc(OCCN3CC(c4[nH]c5nnc(-c6cccc(F)c6O)cc5c4C)C3)no2)C(C)C)cc1 (racemic) ; wanted: its Dmax
*A* < 50%

*Q* # input molecule: Cc1ncsc1-c1ccc([C@H](C)NC(=O)[C@@H]2C[C@@H](O)CN2C(=O)[C@@H](c2cc(OCCN3C[C@@H]4[C@H](C3)[C@H]4c3[nH]c4nnc(-c5cc(F)cc(F)c5O)cc4c3C)no2)C(C)C)cc1 (racemic) ; wanted: its Dmax
*A* < 50%

*Q* # input molecule: Cc1ncsc1-c1ccc([C@H](C)NC(=O)[C@@H]2C[C@@H](O)CN2C(=O)[C@@H](c2cc(OCCN3CCC(N4CC(c5cc6cc(-c7ccccc7O)nnc6[nH]5)C4)C3)no2)C(C)C)cc1 (mixture of isomers) ; wanted: its Dmax
*A* > 50%

*Q* # input molecule: Cc1ncsc1-c1ccc([C@H](C)NC(=O)[C@@H]2C[C@@H](O)CN2C(=O)[C@@H](c2cc(OCCN3[C@@H]4CC[C@H]3CN(c3cc5cc(-c6ccccc6O)nnc5[nH]3)C4)no2)C(C)C)cc1 (racemic) ; wanted: its Dmax
*A* > 75%

*Q* # input molecule: Cc1ncsc1-c1ccc([C@H](C)NC(=O)[C@@H]2C[C@@H](O)CN2C(=O)[C@@H](c2cc(OCCNC(=O)CN3CC(c4cc5cc(-c6ccccc6O)nnc5[nH]4)C3)no2)C(C)C)cc1 (racemic) ; wanted: its Dmax
*A* < 50%

*Q* # input molecule: Cc1ncsc1-c1ccc(CNC(=O)[C@@H]2C[C@@H](O)CN2C(=O)[C@H](c2cc(OCCN3CC(c4cc5cc(-c6ccccc6O)nnc5[nH]4)C3)no2)C(C)C)cc1 (single isomer, unassigned) ; wanted: its Dmax
*A* < 50%

*Q* # input molecule: Cc1ncsc1-c1ccc([C@H](C)NC(=O)[C@@H]2C[C@@H](O)CN2C(=O)[C@@H](c2cc(OCCN3CCN(Cc4cc5cc(-c6ccccc6O)nnc5[nH]4)CC3)no2)C(C)C)cc1 (racemic) ; wanted: its Dmax
*A* < 50%

*Q* # input molecule: O=C1CCC(N2C(=O)c3cccc(OCCCCCCC(=O)N4CC(c5cc6cc(-c7ccccc7O)nnc6[nH]5)C4)c3C2=O)C(=O)N1 (stereo not drawn) ; wanted: its Dmax
*A* < 50%

*Q* # input molecule: `Cc1ncsc1-c1ccc(CNC(=O)[C@@H]2C[C@@H](O)CN2C(=O)[C@@H](NC(=O)CCCCC(=O)N2CC(c3c[nH]c4nnc(-c5ccccc5O)cc34)C2)C(C)(C)C)cc1` ; wanted: its Dmax
*A* < 50%
